# tested-system: HiBit-BRM fusion protein (Homo sapiens, UniProt P51531)
# Construct: expressed in transfected cells
# Sequence (P51531 whole entry, the tested form may be a part): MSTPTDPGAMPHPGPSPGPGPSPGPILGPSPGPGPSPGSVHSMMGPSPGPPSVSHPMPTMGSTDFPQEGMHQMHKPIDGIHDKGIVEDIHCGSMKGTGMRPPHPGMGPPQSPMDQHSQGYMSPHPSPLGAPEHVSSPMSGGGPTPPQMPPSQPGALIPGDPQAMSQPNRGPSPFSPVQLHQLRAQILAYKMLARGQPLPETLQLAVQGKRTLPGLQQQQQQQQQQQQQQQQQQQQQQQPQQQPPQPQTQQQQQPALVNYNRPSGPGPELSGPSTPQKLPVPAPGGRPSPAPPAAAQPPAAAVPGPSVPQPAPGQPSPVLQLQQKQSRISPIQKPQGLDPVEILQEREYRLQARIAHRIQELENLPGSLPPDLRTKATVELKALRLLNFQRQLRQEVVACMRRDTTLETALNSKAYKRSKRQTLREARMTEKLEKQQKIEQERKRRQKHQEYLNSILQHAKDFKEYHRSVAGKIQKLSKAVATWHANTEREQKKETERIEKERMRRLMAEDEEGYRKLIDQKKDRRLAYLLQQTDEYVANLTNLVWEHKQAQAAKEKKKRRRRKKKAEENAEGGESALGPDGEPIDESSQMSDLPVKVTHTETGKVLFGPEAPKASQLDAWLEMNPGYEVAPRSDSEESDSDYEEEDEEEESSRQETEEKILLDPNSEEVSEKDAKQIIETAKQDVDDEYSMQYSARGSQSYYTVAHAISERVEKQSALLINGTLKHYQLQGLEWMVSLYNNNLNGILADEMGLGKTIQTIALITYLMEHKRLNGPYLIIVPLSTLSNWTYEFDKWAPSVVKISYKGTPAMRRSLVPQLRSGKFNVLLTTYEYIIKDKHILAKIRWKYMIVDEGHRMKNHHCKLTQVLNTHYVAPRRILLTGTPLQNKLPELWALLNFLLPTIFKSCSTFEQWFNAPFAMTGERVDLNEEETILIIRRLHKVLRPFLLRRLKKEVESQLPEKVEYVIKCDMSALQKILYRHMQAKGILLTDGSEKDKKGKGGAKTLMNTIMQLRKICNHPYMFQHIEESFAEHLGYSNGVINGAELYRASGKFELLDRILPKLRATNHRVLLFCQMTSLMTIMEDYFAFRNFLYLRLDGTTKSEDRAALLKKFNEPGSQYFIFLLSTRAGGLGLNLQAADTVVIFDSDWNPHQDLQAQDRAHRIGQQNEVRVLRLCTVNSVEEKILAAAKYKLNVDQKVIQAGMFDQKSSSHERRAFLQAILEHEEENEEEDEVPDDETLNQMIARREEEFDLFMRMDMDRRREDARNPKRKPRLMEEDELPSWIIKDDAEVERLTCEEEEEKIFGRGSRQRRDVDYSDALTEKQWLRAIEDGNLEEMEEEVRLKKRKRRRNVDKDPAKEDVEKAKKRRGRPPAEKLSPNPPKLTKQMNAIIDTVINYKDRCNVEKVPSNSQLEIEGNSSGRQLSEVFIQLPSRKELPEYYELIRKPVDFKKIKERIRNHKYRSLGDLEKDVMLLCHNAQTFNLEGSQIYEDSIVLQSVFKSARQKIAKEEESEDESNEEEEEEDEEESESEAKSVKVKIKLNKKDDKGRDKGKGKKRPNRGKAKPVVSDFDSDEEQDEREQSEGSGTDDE
# protocol-text: HiBiT-BRM cell-based degradation assay (Nano-Glo HiBiT Lytic Detection, 24 h)
# test-context: HeLa cell line expressing HiBiT-BRM, read-out: BRM HiBit Degradation IC50
assay-metric: DC50

// known answers, use as guide
compound: Cc1ncsc1-c1ccc([C@H](C)NC(=O)[C@@H]2C[C@@H](O)CN2C(=O)[C@@H](c2cc(OCCN(C)CC34CC(c5cc6cc(-c7ccccc7O)nnc6[nH]5)(C3)C4)no2)C(C)C)cc1 (racemic) [Compound 246]
DC50: > 10 nM
--
compound: Cc1ncsc1-c1ccc([C@H](C)NC(=O)[C@@H]2C[C@@H](O)CN2C(=O)[C@@H](c2cc(N3CCC(C(=O)N4CCc5[nH]c6nnc(-c7ccccc7O)cc6c5C4)CC3)no2)C(C)C)cc1 (racemic) [Compound 187]
DC50: > 10 nM
--
compound: Cc1ncsc1-c1ccc([C@H](C)NC(=O)[C@@H]2C[C@@H](O)CN2C(=O)[C@@H](c2cc(OCCN3C[C@@H]4[C@H](C3)[C@H]4c3cc4cc(-c5cc(F)cc(Cl)c5O)nnc4[nH]3)no2)C(C)C)cc1 (racemic) [Compound 225]
DC50: > 10 nM

API: the following record is the query input.
Prompt: # lookup: DC50 of Cc1ncsc1-c1ccc([C@H](C)NC(=O)[C@@H]2C[C@@H](O)CN2C(=O)[C@@H](c2cc(OCCNCCN3CC(c4cc5cc(-c6ccccc6O)nnc5[nH]4)C3)no2)C(C)C)cc1 (racemic) [Compound 300]
Completion: > 100 nM

* * *

Catalogue of Dmax readings, one per entry.
# tested-system: HiBit-BRG1 fusion protein (Homo sapiens, UniProt P51532)
# Construct: expressed in transfected cells
# Sequence (P51532 whole entry, the tested form may be a part): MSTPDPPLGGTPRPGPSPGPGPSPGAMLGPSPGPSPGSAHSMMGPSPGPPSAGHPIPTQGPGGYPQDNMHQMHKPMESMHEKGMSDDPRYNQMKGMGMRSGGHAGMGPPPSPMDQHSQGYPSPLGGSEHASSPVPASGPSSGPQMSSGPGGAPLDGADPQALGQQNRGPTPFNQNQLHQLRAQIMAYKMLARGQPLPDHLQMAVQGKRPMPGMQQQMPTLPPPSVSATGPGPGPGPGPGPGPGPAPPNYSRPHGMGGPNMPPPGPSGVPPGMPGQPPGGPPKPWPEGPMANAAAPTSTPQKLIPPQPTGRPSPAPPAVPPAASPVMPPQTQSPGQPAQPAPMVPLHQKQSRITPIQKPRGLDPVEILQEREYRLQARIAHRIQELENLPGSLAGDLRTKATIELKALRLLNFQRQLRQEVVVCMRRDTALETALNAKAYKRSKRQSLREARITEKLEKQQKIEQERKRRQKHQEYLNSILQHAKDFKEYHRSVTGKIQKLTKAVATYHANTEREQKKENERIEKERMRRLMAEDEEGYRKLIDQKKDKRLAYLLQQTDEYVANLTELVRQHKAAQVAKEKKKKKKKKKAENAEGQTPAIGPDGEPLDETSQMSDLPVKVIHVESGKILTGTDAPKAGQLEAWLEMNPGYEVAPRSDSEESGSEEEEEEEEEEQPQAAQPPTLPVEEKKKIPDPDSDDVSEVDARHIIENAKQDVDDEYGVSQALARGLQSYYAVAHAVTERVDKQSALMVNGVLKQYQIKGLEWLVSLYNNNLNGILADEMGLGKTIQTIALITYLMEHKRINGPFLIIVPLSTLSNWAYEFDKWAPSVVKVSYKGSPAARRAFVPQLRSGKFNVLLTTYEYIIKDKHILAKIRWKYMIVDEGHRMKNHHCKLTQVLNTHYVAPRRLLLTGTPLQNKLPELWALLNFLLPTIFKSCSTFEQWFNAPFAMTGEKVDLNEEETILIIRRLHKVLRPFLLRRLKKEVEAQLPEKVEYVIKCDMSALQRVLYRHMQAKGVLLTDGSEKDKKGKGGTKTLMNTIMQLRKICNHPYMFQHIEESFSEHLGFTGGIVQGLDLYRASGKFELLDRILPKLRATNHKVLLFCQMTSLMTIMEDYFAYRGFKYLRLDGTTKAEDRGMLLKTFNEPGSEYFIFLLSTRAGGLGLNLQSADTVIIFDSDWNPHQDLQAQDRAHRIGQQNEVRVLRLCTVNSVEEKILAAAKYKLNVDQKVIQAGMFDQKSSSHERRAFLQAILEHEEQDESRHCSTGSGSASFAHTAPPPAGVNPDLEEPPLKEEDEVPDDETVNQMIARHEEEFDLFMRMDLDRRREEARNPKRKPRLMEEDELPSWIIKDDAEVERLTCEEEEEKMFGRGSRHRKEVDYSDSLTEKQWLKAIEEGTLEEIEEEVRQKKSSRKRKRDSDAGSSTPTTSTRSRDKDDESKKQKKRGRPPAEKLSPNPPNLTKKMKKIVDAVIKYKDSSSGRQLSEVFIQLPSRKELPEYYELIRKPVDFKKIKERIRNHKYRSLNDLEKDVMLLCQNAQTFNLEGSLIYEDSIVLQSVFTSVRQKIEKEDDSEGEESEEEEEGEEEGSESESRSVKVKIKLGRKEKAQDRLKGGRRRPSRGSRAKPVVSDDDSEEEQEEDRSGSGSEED
# protocol-text: HiBiT-BRG1 cell-based degradation assay (Nano-Glo HiBiT Lytic Detection, 24 h)
# test-context: HeLa cell line expressing HiBit-BRG1 and LgBit, read-out: BRG1 HiBit Degradation Maximum (%)

molecule: Cc1ncsc1-c1ccc([C@H](C)NC(=O)[C@@H]2C[C@@H](O)CN2C(=O)[C@@H](c2cc([C@H]3CC[C@@H](c4cnc(N5CCC(c6c[nH]c7nnc(-c8ccccc8O)cc67)CC5)nc4)CC3)no2)C(C)C)cc1 (racemic) [Compound 68]
Dmax: < 50%
--
molecule: Cc1ncsc1-c1ccc([C@H](C)NC(=O)[C@@H]2C[C@@H](O)CN2C(=O)[C@@H](c2cc(OCCN3CCC[C@@H](c4cc5cc(-c6ccccc6O)nnc5[nH]4)C3)no2)C(C)C)cc1 (racemic) [Compound 279]
Dmax: < 50%
--
molecule: Cc1ncsc1-c1ccc([C@H](C)NC(=O)[C@@H]2C[C@@H](O)CN2C(=O)[C@@H](c2cc(OCCN3CC(c4[nH]c5nnc(-c6cc(F)ccc6O)cc5c4C)C3)no2)C(C)C)cc1 (racemic) [Compound 130]
Dmax: > 75%
--
molecule: Cc1ncsc1-c1ccc([C@H](C)NC(=O)[C@@H]2C[C@@H](O)CN2C(=O)C(c2cc(N3CCC(C(=O)N4CCc5[nH]c6nnc(-c7ccccc7O)cc6c5C4)CC3)no2)C(C)C)cc1 (mixture of isomers) [Compound 205]
Dmax: < 50%
--
molecule: Cc1ncsc1-c1ccc([C@H](C)NC(=O)[C@@H]2C[C@@H](O)CN2C(=O)[C@@H](c2cc(N3CCN(C(=O)CN4CC(c5cc6cc(-c7ccccc7O)nnc6[nH]5)C4)CC3)no2)C(C)C)cc1 (racemic) [Compound 269]
Dmax: > 75%
--
molecule: Cc1ncsc1-c1ccc([C@H](C)NC(=O)[C@@H]2C[C@@H](O)CN2C(=O)[C@@H](c2cc(CN3CC(c4cc5cc(-c6ccccc6O)nnc5[nH]4)C3)no2)C(C)C)cc1 (single isomer, unassigned) [Compound 137]
Dmax: < 50%

Prompt: # lookup: Dmax of Cc1ncsc1-c1ccc([C@H](C)NC(=O)[C@@H]2C[C@@H](O)CN2C(=O)[C@@H](c2cc(OCC(=O)N(C)[C@H]3CCc4[nH]c5nnc(-c6ccccc6O)cc5c4C3)no2)C(C)C)cc1 [Compound 106]
Completion: < 50%

Prompt: # lookup: Dmax of Cc1ncsc1-c1ccc([C@H](C)NC(=O)[C@@H]2C[C@@H](O)CN2C(=O)[C@@H](c2cc(C3CN(C(=O)[C@H]4CCc5[nH]c6nnc(-c7ccccc7O)cc6c5C4)C3)no2)C(C)C)cc1 (relative stereo) [Compound 157]
Completion: > 75%

Prompt: # lookup: Dmax of Cc1ncsc1-c1ccc([C@H](C)NC(=O)[C@@H]2C[C@@H](O)CN2C(=O)[C@@H](c2cc(N3CCC(C(=O)N4CCc5[nH]c6nnc(-c7ccccc7O)cc6c5[C@H]4C)CC3)no2)C(C)C)cc1 (racemic) [Compound 82]
Completion: > 75%

* * *

# tested-system: HiBit-BRM fusion protein (Homo sapiens)
# Construct: expressed in transfected cells
# protocol-text: HiBiT-BRM cell-based degradation assay (Nano-Glo HiBiT Lytic Detection, 24 h)
# test-context: HeLa cell line expressing HiBiT-BRM, read-out: BRM HiBit Degradation IC50
Catalogue of DC50 readings, one per entry.

compound: Cc1ncsc1-c1ccc([C@H](C)NC(=O)[C@@H]2C[C@@H](O)CN2C(=O)[C@@H](c2cc([C@H]3CC[C@H](c4cnc(N5CCC(c6c[nH]c7nnc(-c8ccccc8O)cc67)CC5)nc4)CC3)no2)C(C)C)cc1 (racemic) [Compound 67]
DC50: < 10 nM
--
compound: Cc1ncsc1-c1ccc([C@H](C)NC(=O)[C@@H]2C[C@@H](O)CN2C(=O)[C@@H](c2cc(C3CN(Cc4cc5cc(-c6ccccc6O)nnc5[nH]4)C3)no2)C(C)C)cc1 (racemic) [Compound 138]
DC50: > 10 nM
--
compound: Cc1ncsc1-c1ccc([C@H](C)NC(=O)[C@@H]2C[C@@H](O)CN2C(=O)[C@@H](c2cc(C3CCN(C(=O)c4cc5cc(-c6ccccc6O)nnc5[nH]4)CC3)no2)C(C)C)cc1 (single isomer, unassigned) [Compound 203]
DC50: > 100 nM

API: the following record is the query input.
Prompt: # lookup: DC50 of Cc1ncsc1-c1ccc(CNC(=O)[C@@H]2C[C@@H](O)CN2C(=O)[C@@H](NC(=O)CCCCCCCNCCC(=O)N2CC(c3c[nH]c4nnc(-c5ccccc5O)cc34)C2)C(C)(C)C)cc1 (racemic) [Compound 56]
Completion: > 1000 nM

* * *

# tested-system: HiBit-BRG1 fusion protein (Homo sapiens)
# Construct: expressed in transfected cells
# protocol-text: HiBiT-BRG1 cell-based degradation assay (Nano-Glo HiBiT Lytic Detection, 24 h)
# test-context: HeLa cell line expressing HiBit-BRG1 and LgBit, read-out: BRG1 HiBit Degradation Maximum (%)
Catalogue of Dmax readings, one per entry.

// known answers, use as guide
compound: Cc1ncsc1-c1ccc([C@H](C)NC(=O)[C@@H]2C[C@@H](O)CN2C(=O)[C@@H](c2cc(OCCN3CCc4[nH]c5nnc(-c6ccccc6O)cc5c4C3)no2)C(C)C)cc1 (racemic) [Compound 303]
tested-system: HiBit-BRG1 fusion protein (Homo sapiens)
recorded-result: < 50%
//
compound: Cc1ncsc1-c1ccc([C@H](C)NC(=O)C2C[C@@H](O)CN2C(=O)[C@@H](c2cc(OCCN3C[C@H]4C[C@H](c5[nH]c6nnc(-c7ccccc7O)cc6c5C)C[C@H]4C3)no2)C(C)C)cc1 (single isomer, unassigned) [Compound 112]
tested-system: HiBit-BRG1 fusion protein (Homo sapiens)
recorded-result: > 75%
//
compound: Cc1ncsc1-c1ccc([C@H](C)NC(=O)[C@@H]2C[C@@H](O)CN2C(=O)[C@@H](c2cc(C3CCN(C(=O)[C@H]4C[C@@]5(Cc6cc(-c7ccccc7O)nnc6N5)C4)CC3)no2)C(C)C)cc1 (racemic) [Compound 69]
tested-system: HiBit-BRG1 fusion protein (Homo sapiens)
recorded-result: < 50%

API: the following record is the query input.
Prompt: # lookup: Dmax of Cc1ncsc1-c1ccc([C@H](C)NC(=O)[C@@H]2C[C@@H](O)CN2C(=O)[C@@H](c2cc(OCCN3CC(Oc4c[nH]c5nnc(-c6ccccc6O)cc45)C3)no2)C(C)C)cc1 (racemic) [Compound 139]
Completion: < 50%

* * *

# tested-system: HiBit-BRM fusion protein (Homo sapiens, UniProt P51531)
# Construct: expressed in transfected cells
# protocol-text: HiBiT-BRM cell-based degradation assay (Nano-Glo HiBiT Lytic Detection, 24 h)
# test-context: HeLa cell line expressing HiBiT-BRM, read-out: BRM HiBit Degradation IC50
assay-metric: DC50

// known answers, use as guide
molecule: Cc1ncsc1-c1ccc([C@H](C)NC(=O)[C@@H]2C[C@@H](O)CN2C(=O)[C@@H](c2cc(OCCN3CC4(Cc5cc(-c6ccccc6O)nnc5N4)C3)no2)C(C)C)cc1 (racemic)
tested-system: HiBit-BRM fusion protein (Homo sapiens, UniProt P51531)
recorded-result: > 0.01 µM
--
molecule: CC(C)[C@@H](C(=O)N1C[C@H](O)C[C@H]1C(=O)N[C@@H](C)c1ccc(-c2ccccc2F)cc1)c1cc(OCCN2CC(c3cc4cc(-c5ccccc5O)nnc4[nH]3)C2)no1 (single isomer, unassigned)
tested-system: HiBit-BRM fusion protein (Homo sapiens, UniProt P51531)
recorded-result: > 0.01 µM

API: the following record is the query input.
Prompt: # lookup: DC50 of Cc1ncsc1-c1ccc([C@H](C)NC(=O)[C@@H]2C[C@@H](O)CN2C(=O)[C@@H](c2cc(OCCN3CCC[C@H](c4c[nH]c5nnc(-c6ccccc6O)cc45)C3)no2)C(C)C)cc1 (racemic)
Completion: > 0.01 µM
